# Protocol Summary: Pharmacokinetics of capsules of Form N-1 with two particle sizes
# Design: species or system dogs
# Reported Conditions: dog, in vivo, po, 10 mg/kg, Particle Diameter D90 10 micron, 10 mpk
Measured Endpoint: Cmax (µM)
Enter your answer as a number in µM; do not include the unit.

Q) # query: Cmax of entry CCOc1ccn(-c2ccc(F)cc2)c(=O)c1C(=O)Nc1ccc(Oc2ccnc(N)c2Cl)c(F)c1 [Form N-1]
A) 15

###

# Protocol Summary: Pharmacokinetics of capsules of Form N-1 with two particle sizes
# Design: species or system dogs
# Reported Conditions: dog, in vivo, oral, 10 mg/kg, Particle Diameter D90 70 micron, 10 mpk, compared to IV data, read-out: Absolute Bioavailability
# Experimental: The microsuspension of Example 7, tablets, and hard gelatin capsules containing the phosphate salt of Compound (I) were dosed orally at 10 mg/kg in dogs pretreated with pentagastrin. The resulting exposures were compared to an absolute bioavailability calculated by comparison to an IV dose in the same animals. Capsules were prepared comprising Compound (I), Form N-1 with two different particle sizes.
Measured Endpoint: bioavailability (%)
Enter your answer as a number in %; do not include the unit.

Q) # query: bioavailability of entry CCOc1ccn(-c2ccc(F)cc2)c(=O)c1C(=O)Nc1ccc(Oc2ccnc(N)c2Cl)c(F)c1 [Form N-1]
A) 12

###

# Protocol Summary: Aqueous solubility of crystalline forms of Compound (I)
# Format: physicochemical
# Reported Conditions: aqueous medium, aqueous buffer; pH 7.4 and room temperature
# Source text: However, in the presence of an aqueous medium, the neat crystalline Form N-1 can convert to the crystalline sesquihydrate Form H1.5-2. […] One method to increase the bioavailability of compounds in a suspension is to increase the surface area of the particles in contact with the aqueous medium, which can be achieved by decreasing the particle size. […]
Measured Endpoint: solubility

Q) # query: solubility of entry CCOc1ccn(-c2ccc(F)cc2)c(=O)c1C(=O)Nc1ccc(Oc2ccnc(N)c2Cl)c(F)c1 [Form N-1]
A) ~0.25 µg/mL

###

# Protocol Summary: Pharmacokinetics of capsules of Form N-1 with two particle sizes
# Parameters: species or system dogs
# Reported Conditions: dog, in vivo, po, 10 mg/kg, Particle Diameter D90 10 micron, 10 mpk
# Description: The microsuspension of Example 7, tablets, and hard gelatin capsules containing the phosphate salt of Compound (I) were dosed orally at 10 mg/kg in dogs pretreated with pentagastrin. The resulting exposures were compared to an absolute bioavailability calculated by comparison to an IV dose in the same animals. Capsules were prepared comprising Compound (I), Form N-1 with two different particle sizes.
Measured Endpoint: Tmax (h)
Enter your answer as a number in h; do not include the unit.

Q) # query: Tmax of entry CCOc1ccn(-c2ccc(F)cc2)c(=O)c1C(=O)Nc1ccc(Oc2ccnc(N)c2Cl)c(F)c1 [Form N-1]
A) 6

###

# Protocol Summary: Pharmacokinetics of capsules of Form N-1 with two particle sizes
# Design: species or system dogs
# Reported Conditions: dog, in vivo, po, 10 mg/kg, Particle Diameter D90 70 micron, 10 mpk
Measured Endpoint: Cmax (µM)
Enter your answer as a number in µM; do not include the unit.

Q) # query: Cmax of entry CCOc1ccn(-c2ccc(F)cc2)c(=O)c1C(=O)Nc1ccc(Oc2ccnc(N)c2Cl)c(F)c1 [Form N-1]
A) 6.9

###

# Protocol Summary: Pharmacokinetics of capsules of Form N-1 with two particle sizes
# Set-up: species or system dogs
# Reported Conditions: dog, in vivo, po, 10 mg/kg, Particle Diameter D90 10 micron, 10 mpk
Measured Endpoint: AUC (µM·h)
Enter your answer as a number in µM·h; do not include the unit.

Q) # query: AUC of entry CCOc1ccn(-c2ccc(F)cc2)c(=O)c1C(=O)Nc1ccc(Oc2ccnc(N)c2Cl)c(F)c1 [Form N-1]
A) 90.2

###

# Protocol Summary: Pharmacokinetics of capsules of Form N-1 with two particle sizes
# Set-up: species or system dogs
# Reported Conditions: dog, in vivo, po, 10 mg/kg, Particle Diameter D90 70 micron, 10 mpk
Measured Endpoint: AUC

Q) # query: AUC of entry CCOc1ccn(-c2ccc(F)cc2)c(=O)c1C(=O)Nc1ccc(Oc2ccnc(N)c2Cl)c(F)c1 [Form N-1]
A) 33.3 µM·h
